Assay: NCI Yeast Anticancer Drug Screen. Data for the mec2-1 strain (AID 157)
Conditions: S. cerevisiae mec2-1 strain, at 50.0 µM
Procedure: Growth inhibition of yeast strains with defined genetic alterations is measured as a screen for potential anti-cancer activity. Selected strains with alterations in DNA damage repair or cell cycle control were exposed to compounds and growth inhibition was measured relative to vehicle treated controls. The strain used in this assay is mec2-1
The panel holds about 79,000 compounds, 15% with a hit somewhere; the sample as a whole holds those more often. The source made the active and inactive calls. No stated cut-off is given here; in the data, active means growth inhibition above about 70%; inactive means the rest. Where a SMILES comes first, the peptide text is derived from it. [ ]: non-standard residue; d: D form. Phe(4-Cl) = N[CH](Cc1ccc(Cl)cc1)C(=O)O; 3Pal = N[CH](Cc1cccnc1)C(=O)O
Classes used: Y for active, N for inactive

[[record]]
molecule = "CCCCc1c2c(nc3c1CC/C(=C\\c1ccc([N+](=O)[O-])cc1)C3=O)CCCC2"
assigned_class = "Y"

[[record]]
molecule = "O=C1c2ccccc2C(O)(c2ccccc2)N1c1ccc([N+](=O)[O-])cc1 (centres undefined)"
assigned_class = "Y"

[[record]]
molecule = "O=C(Cc1nc2ccccc2s1)Nc1cccc(C(F)(F)F)c1"
assigned_class = "Y"

[[record]]
molecule = "CC(=O)NC(Cc1ccc(Cl)cc1)C(=O)NC(Cc1ccc(Cl)cc1)C(=O)NC(Cc1cccnc1)C(=O)NC(CO)C(=O)NC(Cc1ccc(O)cc1)C(=O)NC(CCCN=C(N)N)C(=O)NC(CC(C)C)C(=O)NC(CCCN=C(N)N)C(=O)N1CCCC1C(=O)NC(C)C(=O)O (centres undefined) (Ac-[Phe(4-Cl)][Phe(4-Cl)][3Pal]SYRLRPA-OH; configuration not given here)"
assigned_class = "N"

[[record]]
molecule = "COc1ccc(Cl)c(-c2cc(OC)c(N=N/C(=N/Nc3ccc([N+](=O)[O-])cc3)c3ccc([N+](=O)[O-])cc3)cc2Cl)c1"
assigned_class = "N"

[[record]]
molecule = "O=C(O)/C=C\\C(=O)Nc1ccc2c(c1)C(=O)c1cc(F)ccc1-2"
assigned_class = "N"

[[record]]
molecule = "COC(=O)c1ccc(OCCC(=O)CCl)cc1"
assigned_class = "Y"

[[record]]
molecule = "Cc1ccc(S(=O)(=O)OCCCCOS(=O)(=O)c2ccc(C)cc2)cc1"
assigned_class = "N"

[[record]]
molecule = "C=CCOCCC(=O)OCC=C"
assigned_class = "N"


----------
Assay: NCI Yeast Anticancer Drug Screen. Data for the cln2 rad14 strain (AID 165);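 further: 0% = growth equal to vehicle treated cultures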
Details: S. cerevisiae cln2 rad14 strain, at 5.0 µM (retest, dose inferred, filed as 0.5)
Compounds without any hit were thinned out: in the full panel of roughly 79,000, 15% have a hit. The source made the active and inactive calls. No stated cut-off is given here; in the data, active means growth inhibition above about 70%; inactive means the rest.
Classes used: active, inactive

[[record]]
compound = "CCN(CC)CCCOC(=O)C(c1ccccc1)C1CCCCC1 (stereo unspecified)"
assigned_class = "inactive"

[[record]]
compound = "CP(=O)(c1ccccc1)c1ccccc1"
assigned_class = "inactive"

[[record]]
compound = "CCCCCCCCCCCCCCC/C([O-])=N/[N+](C)(C)CC(C)O (stereo unspecified)"
assigned_class = "active"

[[record]]
compound = "COC(=O)/C=C1/OC(c2ccccc2)=CC1=O"
assigned_class = "inactive"

[[record]]
compound = "S=c1nc(C(c2ccccc2)c2ccccc2)[nH][nH]1"
assigned_class = "inactive"

[[record]]
compound = "[O-]c1c2cc(-[n+]3c(-c4ccccc4)cc(-c4ccccc4)cc3-c3ccccc3)cc1CO[C@@H](c1ccccc1)[C@H](c1ccccc1)OCCOCCO[C@@H](c1ccccc1)[C@H](c1ccccc1)OC2"
assigned_class = "active"

[[record]]
compound = "Cc1ncn(-c2ccccc2O)c1C"
assigned_class = "inactive"

[[record]]
compound = "CCOC(=O)/C(=C\\c1cccc(OC)c1)C(C)=O"
assigned_class = "inactive"

[[record]]
compound = "COc1ccc(/C(C#N)=C(/N)SCc2ccccc2Cl)cc1"
assigned_class = "inactive"

[[record]]
compound = "O=C(NC(c1ccccc1)N1CCOCC1)c1ccccc1 (stereo unspecified)"
assigned_class = "inactive"

[[record]]
compound = "COC(=O)c1c(C(N)=O)c(C)n(NC(=O)Nc2ccccc2)c1C"
assigned_class = "inactive"


----------
Assay: NCI Yeast Anticancer Drug Screen. Data for the sgs1 mgt1 strain (AID 161);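 further: 0% = growth of cultures given vehicle only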
Settings: S. cerevisiae sgs1 mgt1 strain, at 5.0 µM (retest, dose inferred, filed as 0.5), active compounds read high
The panel holds about 79,000 compounds, 15% with a hit somewhere; the sample as a whole holds those more often. Activity calls are given as the source filed them. Cut-off read from the data, not from the text of the source: active = growth inhibition above about 70%; inactive = the rest.
Below, each entry is listed alongside its reported growth inhibition.
ENDPOINT: growth inhibition

[[record]]
molecule = "C/C(=N/O)C1CC(CCC2([N+](=O)[O-])CCC(C)(O)C(/C(C)=N/O)C2)([N+](=O)[O-])CCC1(C)O (stereo unspecified)"
endpoint = "growth inhibition"
reported_value = "-1% (inactive)"

[[record]]
molecule = "CCCCCCCCCCN(CCCCCCCCCC)C1CC(OC2CC(O)(C(O)CO)Cc3c(O)c4c(c(O)c32)C(=O)c2c(OC)cccc2C4=O)OC(C)C1O (stereo unspecified)"
endpoint = "growth inhibition"
reported_value = "10% (inactive)"

[[record]]
molecule = "Cc1ccc(S(=O)(=O)NCCCSCCO)cc1"
endpoint = "growth inhibition"
reported_value = "-12% (inactive)"

[[record]]
molecule = "CNC(=S)N/N=C(\\C=N\\NC(=S)NC)c1ccccc1"
endpoint = "growth inhibition"
reported_value = "3% (inactive)"

[[record]]
molecule = "O=C(O)C1CCC(CC2CC3CCC2C3)CC1 (stereo unspecified)"
endpoint = "growth inhibition"
reported_value = "-58% (inactive)"

[[record]]
molecule = "COc1ccc(C2CN(C(=O)c3ccccc3)N=C(c3ccccc3)O2)cc1 (stereo unspecified)"
endpoint = "growth inhibition"
reported_value = "1% (inactive)"

[[record]]
molecule = "O=C(N/C(=C\\c1ccc(Oc2ccc(Cl)c(Cl)c2)cc1)c1nc2ccccc2[nH]1)c1ccccc1"
endpoint = "growth inhibition"
reported_value = "10% (inactive)"

[[record]]
molecule = "Cc1cc(NS(=O)(=O)c2ccc(N)cc2)no1.[Ag]"
endpoint = "growth inhibition"
reported_value = "99% (active)"

[[record]]
molecule = "COC(=O)/C(C#N)=C/c1cc(OC)c(O)cc1Br"
endpoint = "growth inhibition"
reported_value = "44% (inactive)"

[[record]]
molecule = "O=C1OCC2=C1C(c1ccc(Cl)cc1)c1cc3c(cc1O2)OCO3 (stereo unspecified)"
endpoint = "growth inhibition"
reported_value = "4% (inactive)"

[[record]]
molecule = "CCCCCCSc1nc2ccc(N=Cc3ccccc3O)cc2s1"
endpoint = "growth inhibition"
reported_value = "93% (active)"


----------
Assay: NCI Yeast Anticancer Drug Screen. Data for the mlh1 rad18 strain (AID 175)
Settings: S. cerevisiae mlh1 rad18 strain growth inhibition; at 50.0 µM; active compounds read high
About 79,000 compounds went through this panel and 15% of them were active in at least one assay; those are over-represented in the sample as a whole. Where a SMILES comes first, the peptide text is derived from it. [ ]: non-standard residue; d: D form. The star is where a group is joined. Phe(2-OMe) = COc1ccccc1C[CH](N)C(=O)O; Cbz = O=C(OCc1ccccc1)*; OBn = c1ccc(CO*)cc1
Below, each entry is listed alongside its reported growth inhibition.
ENDPOINT: growth inhibition (%)

[[record]]
molecule = "c1ccc(CCCCc2ccncc2)cc1"
readout_units = "%"
reported_value = 88.5

[[record]]
molecule = "O=C(C=P(c1ccccc1)(c1ccccc1)c1ccccc1)c1ccc(Cl)cc1"
readout_units = "%"
reported_value = 99

[[record]]
molecule = "O=C(O)C1C(c2ccccc2)=C1c1ccccc1"
readout_units = "%"
reported_value = 46.5

[[record]]
molecule = "Cc1c2c(c(C)c3c1OC(C)(C)CC3)OC(C)(C)CC2"
readout_units = "%"
reported_value = 98.2

[[record]]
molecule = "NCCCC(=O)NC(Cc1cnc[nH]1)C(=O)O (stereo not given)"
readout_units = "%"
reported_value = -6.45

[[record]]
molecule = "O=C(CBr)N1c2ccccc2S(=O)(=O)c2ccc3ccccc3c21"
readout_units = "%"
reported_value = 89.8

[[record]]
molecule = "Nc1ccc(C(=O)/C=C/c2ccccn2)cc1"
readout_units = "%"
reported_value = 27.9

[[record]]
molecule = "COC(=O)C(Cc1ccccc1OC)NC(=O)C(CC(=O)OCc1ccccc1)NC(=O)OCc1ccccc1 (stereo not given) (Cbz-Asp(OBn)-[Phe(2-OMe)]-OMe; configuration not given here)"
readout_units = "%"
reported_value = 54.8

[[record]]
molecule = "O=C(N/C(=C\\c1cccc([N+](=O)[O-])c1)c1nc2ccccc2s1)c1ccccc1"
readout_units = "%"
reported_value = 98.2

[[record]]
molecule = "O=C1Oc2cc3c(c4cccc1c24)OCN(c1ccccc1)C3"
readout_units = "%"
reported_value = 58


----------
Experiment: NCI Yeast Anticancer Drug Screen. Data for the mec2-1 strain (AID 157)
Details: S. cerevisiae mec2-1 strain, at 50.0 µM (retest, dose inferred, filed as 5.0), active compounds read high
Compounds without any hit were thinned out: in the full panel of roughly 79,000, 15% have a hit.
Lab note: anything with growth inhibition at or over 90% counts as y; the rest go in n.

[[record]]
compound = "Cc1cc(=O)c2c(ccc3cc4ccccc4cc32)[nH]1"
assigned_class = "n"

[[record]]
compound = "c1cc2c(c3c1CN(C1CCCCC1)CO3)OCN(C1CCCCC1)C2"
assigned_class = "n"

[[record]]
compound = "O=C1Nc2c(Cl)cc(Cl)cc2/C1=N/N=C/c1ccco1"
assigned_class = "n"

[[record]]
compound = "COc1cc(C2CC(=O)c3ccccc3O2)ccc1O (centres undefined)"
assigned_class = "y"

[[record]]
compound = "CCOC(=O)/C=C(\\C)c1ccc([N+](=O)[O-])cc1"
assigned_class = "n"

[[record]]
compound = "COc1cccc(/C=C/C(C)=O)c1OC"
assigned_class = "n"

[[record]]
compound = "CC[C@@H]1O[C@@H]([C@@H]2CC[C@](O)([C@]3(C)CC[C@@H]([C@@H](C)[C@@]4(O)CC[C@H](C)[C@@H](C[C@@]5(O)O[C@@H]([C@@H](C)[C@H](O)C[C@H]6CC[C@H](C)[C@@H]([C@@H](C)C(=O)O)O6)CC[C@@H]5C)O4)O3)O2)CC[C@@]1(C)O"
assigned_class = "y"

[[record]]
compound = "OC(Cc1ccccc1)(Cc1ccccc1)c1ccccc1"
assigned_class = "y"


Cited source for all entries: PubChem BioAssay (NCI)
